target: human 11β-HSD1 enzyme (Homo sapiens); construct: stably transfected with a construct containing the full-length gene coding for the human 11β-HSD1 enzyme; expressed in transfected cells; HEK293/11β-HSD1 cells); experiment: Cellular in vitro 11β-HSD1 enzyme inhibition assay (SPA, HEK293/11β-HSD1 cells); format: cell-based; conditions: read-out: IC50 for 11β-HSD1 (HEK293)
Sequence (P28845 whole entry): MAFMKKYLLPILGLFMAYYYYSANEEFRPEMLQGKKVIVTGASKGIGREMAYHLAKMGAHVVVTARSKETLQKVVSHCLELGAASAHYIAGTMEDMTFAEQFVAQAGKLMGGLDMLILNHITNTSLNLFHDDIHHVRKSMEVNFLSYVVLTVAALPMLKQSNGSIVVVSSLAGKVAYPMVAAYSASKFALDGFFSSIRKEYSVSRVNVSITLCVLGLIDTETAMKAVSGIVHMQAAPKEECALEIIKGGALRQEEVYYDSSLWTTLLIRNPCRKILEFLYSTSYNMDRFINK
Readout Type: IC50

Worked cases, answers included:
Cc1ccccc1C1CCN(C(=O)c2csc(-c3cn[nH]c3)c2)CC1	≤ 500 nM
O=C(c1csc(-c2cn[nH]c2)c1)N1CCC(c2ccccc2F)CC1	≤ 500 nM
O=C(c1csc(-c2cn[nH]c2)c1)N1CCC(F)(c2ccccc2Cl)CC1	≤ 500 nM
O=C(c1csc(-c2cn[nH]c2)c1)N1CCC(CO)(c2ccccc2)CC1	1000 to 10000 nM
COc1ccccc1C1(O)CC2CCC(C1)N2C(=O)c1csc(-c2cn[nH]c2)c1 (stereo not shown)	≤ 500 nM
O=C(c1csc(-c2cn[nH]c2)c1)N1C2CCC1CC(c1ccccc1)C2 (stereo not shown)	≤ 500 nM

Record `O=C(c1csc(-c2cn[nH]c2)c1)N1CCC(O)(c2cccc(Cl)c2Cl)CC1` , field IC50: ≤ 500 nM

Record `COc1ccccc1C1CCN(C(=O)c2csc(-c3cn[nH]c3)c2)CC1` , field IC50: ≤ 500 nM
